- experimentalSystem: Serine/threonine-protein kinase 33 (Homo sapiens) (UniProt Q9BYT3)
- Sequence (Q9BYT3 whole entry, looked up): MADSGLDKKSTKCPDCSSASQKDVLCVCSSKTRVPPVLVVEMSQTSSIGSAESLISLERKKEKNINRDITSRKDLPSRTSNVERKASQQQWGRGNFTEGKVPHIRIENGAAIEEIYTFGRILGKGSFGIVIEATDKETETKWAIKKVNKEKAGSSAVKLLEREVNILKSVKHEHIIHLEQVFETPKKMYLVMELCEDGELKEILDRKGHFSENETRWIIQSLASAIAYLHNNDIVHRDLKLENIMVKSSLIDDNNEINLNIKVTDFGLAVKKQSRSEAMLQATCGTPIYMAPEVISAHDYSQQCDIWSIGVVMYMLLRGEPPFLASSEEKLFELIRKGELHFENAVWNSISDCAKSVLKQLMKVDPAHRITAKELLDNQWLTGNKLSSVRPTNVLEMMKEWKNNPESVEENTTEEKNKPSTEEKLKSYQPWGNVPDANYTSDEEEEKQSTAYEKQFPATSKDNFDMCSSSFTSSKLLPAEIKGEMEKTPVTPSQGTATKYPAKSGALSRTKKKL
- testProtocol: inhibitors of purified STK33 kinase, primary screen, biochemical, ADP-Glo luminescence, homogeneous, cell-free (AID 2661)
- measurementParameters: purified STK33, MBP phosphorylation, at 10 µM, hits give high values
Screen size: about 320,000 compounds; about 240 (0.075%) were called active. The entries come from a sample that favours actives as a whole.
Reported inhibition values are given for each entry in this list.

>>> result("Fc1ccc2cnc(-c3ccccc3)cc2c1")
"-0.562% (inactive)"
>>> result("Cc1csc(=O)n1CC(=O)Nc1ccc(S(C)(=O)=O)cc1")
"-0.384% (inactive)"
>>> result("C=CCC[C@@H](Cc1ccc(F)cc1)C(=O)O[C@H](CNC(=O)[C@H](CC=C)CC(=O)N(CCO)Cc1ccccc1)c1ccccc1")
"-2.71% (inactive)"
>>> result("Fc1ccccc1-c1cc2cc3c(cc2cn1)OCO3")
"1.15% (inactive)"
>>> result("COc1ccc(S(=O)(=O)N2CCOCC2)cc1NC(=O)CSc1nnc(NC2CC2)s1")
"-0.646% (inactive)"

Now for another entry.
Could you please provide reported inhibition for C[C@]12CC[C@H](O)CC1=CCC1C2CC[C@@]2(C)C1CC[C@@H]2NC(=O)CCC(=O)O (stereo not given in full) ? Thanks!
-0.89% (inactive)

----------
Reported inhibition values are given for each entry in this list.
- experimentalSystem: Serine/threonine-protein kinase 33 (Homo sapiens)
- testProtocol: inhibitors of purified STK33 kinase, primary screen, biochemical, ADP-Glo luminescence, homogeneous, cell-free (AID 2661)
- measurementParameters: purified STK33, MBP phosphorylation, at 10 µM, hits give high values
About 240 (0.075%) of roughly 320,000 compounds were called active. Many of the other results were omitted from the sample, so actives are more common in it than they were.
Please give a number only; it is taken to be in %.

Please review the entries below; each comes with its answer.
>>> resultnumber("CCN(C[C@H]1N[C@@](CC)(C(=O)OC)[C@H]2C(=O)N(C)C(=O)[C@@H]12)C(=O)Nc1ccc(F)cc1")
-1.58
>>> resultnumber("O=C(NNC(=O)c1ccc(Cl)nc1)c1ccc(Br)cc1")
-0.906
>>> resultnumber("CC1(C)CC[C@@]2(C(=O)O)C(C1)C1=CCC3[C@@]4(C)CC[C@H](O)C(C)(C)C4CC[C@@]3(C)[C@]1(C)C[C@H]2O (stereo partly specified)")
-0.618
>>> resultnumber("COc1cccc(NC(=O)COc2cccnc2[N+](=O)[O-])c1")
-0.0978
>>> resultnumber("Cc1ccc(CNC(=O)COC(=O)C2CCC2)cc1")
-0.167
>>> resultnumber("NS(=O)(=O)c1ccc(CNC(=S)NC(=O)c2ccco2)cc1")
-0.0738
>>> resultnumber("C=CC[C@@H](CC(=O)N[C@H](CO)Cc1ccccc1)C(=O)N[C@H](C)COC(=O)[C@@H](CC=C)Cc1ccc(F)cc1")
-1.41
>>> resultnumber("COc1ccc(C(=O)COC(=O)C(O)c2ccccc2)c(OC)c1 (stereo unspecified)")
-0.118
>>> resultnumber("CC1CCN(C2=NC(=O)/C(=C/c3cn[nH]c3-c3ccccc3)S2)CC1")
0.902
>>> resultnumber("O=C(Cn1cnc2c(OCc3ccccc3)ncnc21)NCc1nc2ccccc2[nH]1")
0.0433

Could you please provide reported inhibition for COc1ccc(Br)cc1CN(C)C(=O)C1CC(=O)N(C2CCCC2)C1 (stereo unspecified) ? Thanks!
-1.57

Could you please provide reported inhibition for COc1ccc2nc3n(c(=O)c2c1)-c1ccc(Cl)cc1C(=O)NC3Cc1ccccc1 (stereo unspecified) ? Thanks!
0.119

----------
- experimentalSystem: Serine/threonine-protein kinase 33 (Homo sapiens)
- testProtocol: inhibitors of purified STK33 kinase, primary screen, biochemical, ADP-Glo luminescence, homogeneous, cell-free (AID 2661)
- measurementParameters: purified STK33, MBP phosphorylation, at 10 µM, hits give high values
About 240 (0.075%) of roughly 320,000 compounds were called active. The entries come from a sample that favours actives as a whole.
valueKind: inhibition (%)
Please give a number only; it is taken to be in %.

Please review the entries below; each comes with its answer.
>>> resultnumber("COC(=O)[C@]1(CC(C)C)N[C@H](c2ccc(SC3CCCCC3)cc2)[C@@H]2C(=O)N(C)C(=O)[C@@H]21")
-0.318
>>> resultnumber("COc1cc(OC)cc(-c2sc3ccc(OC)cc3c2-c2ccc3cc[nH]c3c2)c1")
1.63
>>> resultnumber("C[C@H](NS(=O)(=O)c1ccc(Cl)cc1)C(=O)OCC(=O)N1CCOCC1")
-1.2

Now for another entry.
Could you please provide reported inhibition for CNC[C@@H]1Oc2c(NS(C)(=O)=O)cccc2C(=O)N([C@@H](C)CO)C[C@H]1C ? Thanks!
-0.879

----------
- experimentalSystem: Serine/threonine-protein kinase 33 (Homo sapiens)
- testProtocol: inhibitors of purified STK33 kinase, primary screen, biochemical, ADP-Glo luminescence, homogeneous, cell-free (AID 2661)
- measurementParameters: purified STK33, MBP phosphorylation, at 10 µM, hits give high values
Hit rate of the full screen: of about 320,000 compounds, about 240 (0.075%) were called active. The entries come from a sample that favours actives as a whole.
valueKind: inhibition (%)
Please give a number only; it is taken to be in %.

>>> resultnumber("O=C(C[C@H]1C/C=C\\C[C@@H](NC(=O)OCC2c3ccccc3-c3ccccc32)C(=O)O[C@@H](c2ccccc2)CNC1=O)N[C@H](CO)Cc1ccccc1")
0.211
>>> resultnumber("O=C(CN1C(=O)c2ccc([N+](=O)[O-])cc2C1=O)Nc1nnc(C2CC2)s1")
-0.729
>>> resultnumber("Cn1cccc1C(=O)OCC(=O)NCCc1ccccc1")
-0.939
>>> resultnumber("O=C(Nc1cccc(S(=O)(=O)N2CCOCC2)c1)C12CC3CC(CC(C3)C1)C2")
-0.903
>>> resultnumber("Cc1ccc(C(=O)Nc2ccccc2-c2ccccc2)cc1S(=O)(=O)Nc1ccccc1")
-1.82
>>> resultnumber("CC(C)NC(=O)Nc1cccc2c1O[C@H](CN(C)S(=O)(=O)c1cccs1)[C@@H](C)CN([C@H](C)CO)C2=O")
-0.082

Enter inhibition (test system Serine/threonine-protein kinase 33 (Homo sapiens)) for O=S(=O)(Nc1ncnc2sccc12)c1cccc(F)c1
-0.694

----------
- experimentalSystem: Serine/threonine-protein kinase 33 (Homo sapiens) (UniProt Q9BYT3)
- testProtocol: inhibitors of purified STK33 kinase, primary screen, biochemical, ADP-Glo luminescence, homogeneous, cell-free (AID 2661)
- measurementParameters: purified STK33, MBP phosphorylation, at 10 µM, hits give high values
Hit rate of the full screen: of about 320,000 compounds, about 240 (0.075%) were called active. The list comes from a sample in which actives are over-represented; it also holds close analogues and randomly drawn compounds.
valueKind: inhibition (%)
Please give a number only; it is taken to be in %.

Please review the entries below; each comes with its answer.
>>> resultnumber("O=C(COc1ccccc1F)Nc1nc(-c2ccccn2)cs1")
-1.01
>>> resultnumber("O=C(Nc1cccc(S(=O)(=O)N2CCCCC2)c1)c1cncc(Br)c1")
-0.246
>>> resultnumber("Cn1c(N)c(C(=O)COC(=O)c2cccc(S(=O)(=O)N3CCOCC3)c2)c(=O)n(C)c1=O")
-0.402
>>> resultnumber("O=[N+]([O-])c1ccc(N=Cc2c(O)ccc3ccccc23)cc1")
-0.767

Enter inhibition (test system Serine/threonine-protein kinase 33 (Homo sapiens) (UniProt Q9BYT3)) for COc1ccc2nc3n(c(=O)c2c1)-c1cc(C)ccc1C(=O)NC3Cc1ccc(O)cc1 (centres undefined)
-0.57

Enter inhibition (test system Serine/threonine-protein kinase 33 (Homo sapiens) (UniProt Q9BYT3)) for Cc1occc1C(=O)Nc1cccc(S(=O)(=O)N2CCOCC2)c1
-0.0898

Enter inhibition (test system Serine/threonine-protein kinase 33 (Homo sapiens) (UniProt Q9BYT3)) for CCc1cccc(CC)c1NC(=S)Nc1ccc2cn[nH]c2c1
24.8

Enter inhibition (test system Serine/threonine-protein kinase 33 (Homo sapiens) (UniProt Q9BYT3)) for Cc1cc(NC(=O)CSc2ncc(C(F)(F)F)cc2Cl)no1
-0.4

----------
Reported inhibition values are given for each entry in this list.
- experimentalSystem: Serine/threonine-protein kinase 33 (Homo sapiens) (UniProt Q9BYT3)
- testProtocol: inhibitors of purified STK33 kinase, primary screen, biochemical, ADP-Glo luminescence, homogeneous, cell-free (AID 2661)
- measurementParameters: purified STK33, MBP phosphorylation, at 10 µM, hits give high values
About 240 (0.075%) of roughly 320,000 compounds were called active. The list comes from a sample in which actives are over-represented; it also holds close analogues and randomly drawn compounds.
Please give a number only; it is taken to be in %.

Could you please provide reported inhibition for COc1ccc(S(=O)(=O)N2CCN(c3cnccn3)CC2)cc1 ? Thanks!
0.373

Could you please provide reported inhibition for COCC(C)n1c(SCC(=O)NC2CCCCC2C)nc2ccccc2c1=O (centres undefined) ? Thanks!
1.21

Could you please provide reported inhibition for C=CC[C@@H](CC(=O)N[C@@H](CO)Cc1ccccc1)C(=O)N[C@H](COC(=O)[C@H](CC=C)CC(=O)OC(C)(C)C)Cc1ccccc1 ? Thanks!
-0.409

Could you please provide reported inhibition for O=C(COc1ccc(Br)cc1F)NCC1(N2CCCCC2)CCCCC1 ? Thanks!
-1.07
